Tested on: THP-1 cells
Assay method text: Cytotoxicity MTT reduction assay
Format: cell-based
Measurement conditions: 50% cell death, THP-1 cells, MTT, 18-24 hours
No end group written: not given here.
Below: a set of entries, each annotated with reported IC50.
Experimental endpoint: IC50 (µM)

Substance	Experimental endpoint	Reported measurement
variant of Enterocin 96: MASKACCAGQAVTYAIHSLLNRLGGDSSDPAGCNDIVRKYCK (Variant of Enteriocin 96) [SEQ ID NO: 41]	IC50	309
neo-glycocin with pediocin box (YYGNGV): MASKYYGNGVKRDCNLMKACCAGQAVTYAIHSLLNRLGGDSSDPAGCNDIVRKYCK (not fully specified; cysteine pairing not given here) [SEQ ID NO: 11]	IC50	234
variant of Enterocin 96: MASKRDCNLMKACCAGQAVTYAIHSLLNRLGGDSSGPAGCNDIVRKYCK (Variant of Enterocin 96) [SEQ ID NO: 42]	IC50	279
variant of Enterocin 96: MASKRDCNLMKACCAEQAVTYAIQSLLNRLGGDSSDPAGCNDIVRKYCK (Variant of Enterocin 96) [SEQ ID NO: 45]	IC50	167

----------
Test system: human red blood cells
Assay method text: Hemolytic assay
Format: cell-based
No end group written: not given here.
Experimental endpoint: Hemolysis (MHC in μM) (µM)

Substance	System tested	Experimental endpoint	Unit abbrev	Reported measurement
variant of Enterocin 96: MASKRDCNLMKACCAEQAVTYAIQSLLNRLGGDSSDPAGCNDIVRKYCK (Variant of Enterocin 96) [SEQ ID NO: 45]	human red blood cells	Hemolysis (MHC in μM)	µM	600
variant of Enterocin 96: MASKACCAGQAVTYAIHSLLNRLGGDSSDPAGCNDIVRKYCK (Variant of Enteriocin 96) [SEQ ID NO: 41]	human red blood cells	Hemolysis (MHC in μM)	µM	600
neo-glycocin with pediocin box (YYGNGV): MASKYYGNGVKRDCNLMKACCAGQAVTYAIHSLLNRLGGDSSDPAGCNDIVRKYCK (not fully specified; cysteine pairing not given here) [SEQ ID NO: 11]	human red blood cells	Hemolysis (MHC in μM)	µM	600
variant of Enterocin 96: MASKRDCNLMKACCAGQAVTYAIHSLLNRLGGDSSGPAGCNDIVRKYCK (Variant of Enterocin 96) [SEQ ID NO: 42]	human red blood cells	Hemolysis (MHC in μM)	µM	600
